Data provenance: PubChem BioAssay AID2060891

Parameter: viability, T/C. Scope: all listed entries.
test system: K98450-129-R-PDC complex spheroid growth, percent test/control; assay: Anticancer human tumor K98450-129-R-PDC patient-derived colon adenocarcinoma cell line growth inhibition [RAS]; settings: second compound 0.0949 µM; first compound 0.00949 µM; stronger effect = lower value;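 note: luminescence used as a proxy for viable cell amount; spheroids exposed to agents for seven days before the viability readout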
observable: viability, T/C (%)

molecule="CCc1c2c(nc3ccc(O)cc13)-c1cc3c(c(=O)n1C2)COC(=O)[C@]3(O)CC + CCn1c(-c2cc(N3CCN(C)CC3)cnc2C(C)OC)c2c3cc(ccc31)-c1csc(n1)CC(NC(=O)C1CC1C)C(=O)N1CCCC(N1)C(=O)OCC(C)(C)C2" experimental_result=17.5
molecule="CCc1c2c(nc3ccc(O)cc13)-c1cc3c(c(=O)n1C2)COC(=O)[C@]3(O)CC + CCn1c(-c2cccnc2C(C)OC)c2c3cc(ccc31)N1CCOC(CC(NC(=O)C(C(C)C)N(C)C(=O)C3(F)CCN(C(=O)C#CC(C)(C)N(C)C)CC3)C(=O)N3CCCC(N3)C(=O)OCC(C)(C)C2)C1" experimental_result=27.9
molecule="CC1(C)CCC(Nc2ncc(C(F)(F)F)c(-c3c[nH]c4c(P(C)(C)=O)c(C#N)ccc34)n2)CN1 (centres undefined) + CCn1c(-c2cccnc2C(C)OC)c2c3cc(ccc31)N1CCOC(CC(NC(=O)C(C(C)C)N(C)C(=O)C3(F)CCN(C(=O)C#CC(C)(C)N(C)C)CC3)C(=O)N3CCCC(N3)C(=O)OCC(C)(C)C2)C1" experimental_result=44.7
molecule="CC1(C)CCC(Nc2ncc(C(F)(F)F)c(-c3c[nH]c4c(P(C)(C)=O)c(C#N)ccc34)n2)CN1 (centres undefined) + CCn1c(-c2cc(N3CCN(C)CC3)cnc2C(C)OC)c2c3cc(ccc31)-c1csc(n1)CC(NC(=O)C1CC1C)C(=O)N1CCCC(N1)C(=O)OCC(C)(C)C2" experimental_result=30.6
